- Target or test system: von Willebrand factor (VWF) (Homo sapiens, UniProt P04275 P04275:764-2813)
- Assay overview: filter; Bmax 78%; 2 mM CaCl2, 37 C
- Stated conditions: tags: factor VIII free human purified VWF, Haematologic Technologies Inc; label: 5'-32P
Quantity: pKd
Scale note: pKd = -log10(concentration in M).

ACGAACUGCCCUCUUUUUUGACGCACAGACGU (ssRNA, 2'-F C9,C10,C11,C22,G23,C24,U32; rest 2'-OMe; 3' idT) [T94 vrt6]	7.38

Okay, next one:
Measured pKd of ACGAACUGCCCUCGAUCGACGCACAGACGUACCCG (ssRNA, 2'-F C9,C10,C11,C20,G21,C22; rest 2'-OMe; 3' idT) [T82 vrt7] : 6.57
